- Tested on: Staphylococcus aureus S13E
- Assay type: cell-based
reported metric: MIC

[
  {
    "compound": "CNC(CC(C)C)C(=O)NC1C(=O)NC(CC(N)=O)C(=O)NC2C(=O)NC3C(=O)NC(C(=O)NC(C(=O)O)c4cc(O)cc(O)c4-c4cc3ccc4O)C(OC3CC(C)(NCc4ccc(-c5ccc([N+](=O)[O-])cc5)cc4)C(O)C(C)O3)c3ccc(c(Cl)c3)Oc3cc2cc(c3OC2OC(CO)C(O)C(O)C2OC2CC(C)(NCc3ccc(-c4ccc([N+](=O)[O-])cc4)cc3)C(O)C(C)O2)Oc2ccc(cc2Cl)C1O (stereo not drawn)",
    "reported metric": "MIC",
    "test result": "1 µg/mL"
  }
]

Return reported MIC values for all items listed beneath this line.
1. CNC(CC(C)C)C(=O)NC1C(=O)NC(CC(N)=O)C(=O)NC2C(=O)NC3C(=O)NC(C(=O)NC(C(=O)O)c4cc(O)cc(O)c4-c4cc3ccc4O)C(OC3CC(C)(N)C(O)C(C)O3)c3ccc(c(Cl)c3)Oc3cc2cc(c3OC2OC(CO)C(O)C(O)C2OC2CC(C)(NCc3ccc4c(c3)CCCC4)C(O)C(C)O2)Oc2ccc(cc2Cl)C1O (stereo not drawn)
2. CNC(CC(C)C)C(=O)NC1C(=O)NC(CC(N)=O)C(=O)NC2C(=O)NC3C(=O)NC(C(=O)NC(C(=O)O)c4cc(O)cc(O)c4-c4cc3ccc4O)C(OC3CC(C)(N)C(O)C(C)O3)c3ccc(c(Cl)c3)Oc3cc2cc(c3OC2OC(CO)C(O)C(O)C2OC2CC(C)(NCC3CCC(c4ccccc4)C3)C(O)C(C)O2)Oc2ccc(cc2Cl)C1O (stereo not drawn)

["≤ 0.06 µg/mL", "≤ 0.06 µg/mL"]

###

- Tested on: vancomycin-susceptible enterococci
- procedure details: broth micro-dilution, mean geometric MIC
- Assay type: cell-based, Enterococcus faecium and Enterococcus faecalis
- measurement parameters: enterococci, 24-hour incubation
Hi there, I'd appreciate the recorded mean geometric MIC, Vancomycin Sensitive Strains for every entry that follows.
One number for each entry, in µg/mL.

For orientation, consider the following solved cases.
[
  {
    "compound": "CNC(CC(C)C)C(=O)NC1C(=O)NC(CC(N)=O)C(=O)NC2C(=O)NC3C(=O)NC(C(=O)NC(C(=O)O)c4cc(O)cc(O)c4-c4cc3ccc4O)C(OC3CC(C)(N)C(O)C(C)O3)c3ccc(c(Cl)c3)Oc3cc2cc(c3OC2OC(CO)C(O)C(O)C2OC2CC(C)(NCCCc3ccc(OC)cc3)C(O)C(C)O2)Oc2ccc(cc2Cl)C1O (stereo not drawn)",
    "test result": 0.22
  },
  {
    "compound": "CNC(CC(C)C)C(=O)NC1C(=O)NC(CC(N)=O)C(=O)NC2C(=O)NC3C(=O)NC(C(=O)NC(C(=O)O)c4cc(O)cc(O)c4-c4cc3ccc4O)C(OC3CC(C)(NCc4ccc(-c5ccc([N+](=O)[O-])cc5)cc4)C(O)C(C)O3)c3ccc(c(Cl)c3)Oc3cc2cc(c3OC2OC(CO)C(O)C(O)C2OC2CC(C)(NCc3ccc(-c4ccc([N+](=O)[O-])cc4)cc3)C(O)C(C)O2)Oc2ccc(cc2Cl)C1O (stereo not drawn)",
    "test result": 0.29
  }
]

Please examine the following record next.
Look up mean geometric MIC, Vancomycin Sensitive Strains of CCOc1cc(CNC2(C)CC(OC3C(Oc4c5cc6cc4Oc4ccc(cc4Cl)C(OC4CC(C)(N)C(O)C(C)O4)C4NC(=O)C(NC(=O)C6NC(=O)C(CC(N)=O)NC(=O)C(NC(=O)C(CC(C)C)NC)C(O)c6ccc(c(Cl)c6)O5)c5ccc(O)c(c5)-c5c(O)cc(O)cc5C(C(=O)O)NC4=O)OC(CO)C(O)C3O)OC(C)C2O)ccc1OCC1CCCCC1 (stereo not drawn) and report it. 0.062

###

- Test system: Staphylococcus aureus S13E
- Format: cell-based
- Description: The MIC's were determined using a standard broth micro-dilution assay.
Note to self: use label 1 only for MIC readings below 1 µg/mL; a reading exactly at 1 µg/mL still gets label 0.

[
  {
    "compound": "CNC(CC(C)C)C(=O)NC1C(=O)NC(CC(N)=O)C(=O)NC2C(=O)NC3C(=O)NC(C(=O)NC(C(=O)O)c4cc(O)cc(O)c4-c4cc3ccc4O)C(OC3CC(C)(N)C(O)C(C)O3)c3ccc(c(Cl)c3)Oc3cc2cc(c3OC2OC(CO)C(O)C(O)C2OC2CC(C)(NCCc3ccccc3OCc3ccccc3)C(O)C(C)O2)Oc2ccc(cc2Cl)C1O (centres unmarked)",
    "category": "label 1"
  },
  {
    "compound": "CNC(CC(C)C)C(=O)NC1C(=O)NC(CC(N)=O)C(=O)NC2C(=O)NC3C(=O)NC(C(=O)NC(C(=O)O)c4cc(O)cc(O)c4-c4cc3ccc4O)C(OC3CC(C)(N)C(O)C(C)O3)c3ccc(c(Cl)c3)Oc3cc2cc(c3OC2OC(CO)C(O)C(O)C2OC2CC(C)(NCc3cccc4c3OCO4)C(O)C(C)O2)Oc2ccc(cc2Cl)C1O (centres unmarked)",
    "category": "label 1"
  },
  {
    "compound": "CNC(CC(C)C)C(=O)NC1C(=O)NC(CC(N)=O)C(=O)NC2C(=O)NC3C(=O)NC(C(=O)NC(C(=O)O)c4cc(O)cc(O)c4-c4cc3ccc4O)C(OC3CC(C)(N)C(O)C(C)O3)c3ccc(c(Cl)c3)Oc3cc2cc(c3OC2OC(CO)C(O)C(O)C2OC2CC(C)(NCc3cccc(OC4CCCCC4)c3)C(O)C(C)O2)Oc2ccc(cc2Cl)C1O (centres unmarked)",
    "category": "label 1"
  },
  {
    "compound": "C=CCOc1ccc(CNC2(C)CC(OC3C(Oc4c5cc6cc4Oc4ccc(cc4Cl)C(OC4CC(C)(N)C(O)C(C)O4)C4NC(=O)C(NC(=O)C6NC(=O)C(CC(N)=O)NC(=O)C(NC(=O)C(CC(C)C)NC)C(O)c6ccc(c(Cl)c6)O5)c5ccc(O)c(c5)-c5c(O)cc(O)cc5C(C(=O)O)NC4=O)OC(CO)C(O)C3O)OC(C)C2O)cc1 (centres unmarked)",
    "category": "label 0"
  },
  {
    "compound": "CC(C)CC(C(=O)NC1C(=O)NC(CC(N)=O)C(=O)NC2C(=O)NC3C(=O)NC(C(=O)NC(C(=O)O)c4cc(O)cc(O)c4-c4cc3ccc4O)C(OC3CC(C)(NCc4cccc5c([N+](=O)[O-])cccc45)C(O)C(C)O3)c3ccc(c(Cl)c3)Oc3cc2cc(c3OC2OC(CO)C(O)C(O)C2OC2CC(C)(N)C(O)C(C)O2)Oc2ccc(cc2Cl)C1O)N(C)Cc1cccc2c([N+](=O)[O-])cccc12 (centres unmarked)",
    "category": "label 0"
  }
]

Item CNC(CC(C)C)C(=O)NC1C(=O)NC(CC(N)=O)C(=O)NC2C(=O)NC3C(=O)NC(C(=O)NC(C(=O)O)c4cc(O)cc(O)c4-c4cc3ccc4O)C(OC3CC(C)(N)C(O)C(C)O3)c3ccc(c(Cl)c3)Oc3cc2cc(c3OC2OC(CO)C(O)C(O)C2OC2CC(C)(NCCCCCCCCOc3ccc(Oc4ccccc4)cc3)C(O)C(C)O2)Oc2ccc(cc2Cl)C1O (centres unmarked) : MIC beneath 1 µg/mL, strictly? label 0

Dear colleague, could you confirm whether MIC of CNC(CC(C)C)C(=O)NC1C(=O)NC(CC(N)=O)C(=O)NC2C(=O)NC3C(=O)NC(C(=O)NC(C(=O)O)c4cc(O)cc(O)c4-c4cc3ccc4O)C(OC3CC(C)(N)C(O)C(C)O3)c3ccc(c(Cl)c3)Oc3cc2cc(c3OC2OC(CO)C(O)C(O)C2OC2CC(C)(NCc3ccc(-c4ccc(C)c(C)c4)cc3)C(O)C(C)O2)Oc2ccc(cc2Cl)C1O (centres unmarked) falls below 1 µg/mL? Thanks. label 1

Dear reviewer, please state whether CCCc1ccc(-c2ccc(CNC3(C)CC(OC4C(Oc5c6cc7cc5Oc5ccc(cc5Cl)C(OC5CC(C)(N)C(O)C(C)O5)C5NC(=O)C(NC(=O)C7NC(=O)C(CC(N)=O)NC(=O)C(NC(=O)C(CC(C)C)NC)C(O)c7ccc(c(Cl)c7)O6)c6ccc(O)c(c6)-c6c(O)cc(O)cc6C(C(=O)O)NC5=O)OC(CO)C(O)C4O)OC(C)C3O)cc2)cc1 (centres unmarked) has MIC strictly beneath 1 µg/mL. label 0

###

- Test system: Staphylococcus aureus 447
- procedure details: broth micro-dilution MIC
- Type: cell-based
For each entry below, report its MIC value.
Dear colleague, please send the value followed by its unit.

[
  {
    "compound": "CC(C)CC(C(=O)NC1C(=O)NC(CC(N)=O)C(=O)NC2C(=O)NC3C(=O)NC(C(=O)NC(C(=O)O)c4cc(O)cc(O)c4-c4cc3ccc4O)C(OC3CC(C)(N)C(O)C(C)O3)c3ccc(c(Cl)c3)Oc3cc2cc(c3OC2OC(CO)C(O)C(O)C2OC2CC(C)(NCC3CC=CCC3)C(O)C(C)O2)Oc2ccc(cc2Cl)C1O)N(C)CC1CC=CCC1 (centres unmarked) [Compound 287]",
    "MIC": "4 µg/mL"
  }
]

Now let's try a different one.
Retrieve MIC on Staphylococcus aureus 447; query CC(C)CC(C(=O)NC1C(=O)NC(CC(N)=O)C(=O)NC2C(=O)NC3C(=O)NC(C(=O)NC(C(=O)O)c4cc(O)cc(O)c4-c4cc3ccc4O)C(OC3CC(C)(N)C(O)C(C)O3)c3ccc(c(Cl)c3)Oc3cc2cc(c3OC2OC(CO)C(O)C(O)C2OC2CC(C)(NCc3cccnc3)C(O)C(C)O2)Oc2ccc(cc2Cl)C1O)N(C)Cc1cccnc1 (centres unmarked) [Compound 280] 8 µg/mL

// provenance: patent US5840684A
